- measurement target: Recombinant human soluble guanylate cyclase (sGC), alpha 1 / beta 1 subunits, heme-free (Homo sapiens, UniProt Q02108+Q02153)
- Construct: histidine tag (C); made in house; host or cells: Sf9 insect cells (baculovirus coinfection)
- Sequence (Q02108 1-690 partner): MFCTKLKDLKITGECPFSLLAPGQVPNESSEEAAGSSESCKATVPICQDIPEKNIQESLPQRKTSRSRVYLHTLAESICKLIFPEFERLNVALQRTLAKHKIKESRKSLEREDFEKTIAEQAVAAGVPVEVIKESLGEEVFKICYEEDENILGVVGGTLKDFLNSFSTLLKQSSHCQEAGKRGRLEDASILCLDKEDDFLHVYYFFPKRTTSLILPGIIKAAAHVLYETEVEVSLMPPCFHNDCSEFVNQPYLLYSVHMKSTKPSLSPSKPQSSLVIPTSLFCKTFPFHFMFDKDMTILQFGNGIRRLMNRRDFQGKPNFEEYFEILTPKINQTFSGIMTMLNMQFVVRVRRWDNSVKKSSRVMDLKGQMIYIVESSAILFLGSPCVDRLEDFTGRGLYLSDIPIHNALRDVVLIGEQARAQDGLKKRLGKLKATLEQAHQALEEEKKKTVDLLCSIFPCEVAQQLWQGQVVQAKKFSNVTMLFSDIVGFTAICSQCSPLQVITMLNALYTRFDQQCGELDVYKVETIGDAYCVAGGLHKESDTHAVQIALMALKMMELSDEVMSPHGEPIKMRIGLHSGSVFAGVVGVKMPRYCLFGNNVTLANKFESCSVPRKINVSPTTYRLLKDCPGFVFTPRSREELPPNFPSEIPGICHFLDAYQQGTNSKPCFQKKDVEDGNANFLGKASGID
- Sequence (Q02153 1-619): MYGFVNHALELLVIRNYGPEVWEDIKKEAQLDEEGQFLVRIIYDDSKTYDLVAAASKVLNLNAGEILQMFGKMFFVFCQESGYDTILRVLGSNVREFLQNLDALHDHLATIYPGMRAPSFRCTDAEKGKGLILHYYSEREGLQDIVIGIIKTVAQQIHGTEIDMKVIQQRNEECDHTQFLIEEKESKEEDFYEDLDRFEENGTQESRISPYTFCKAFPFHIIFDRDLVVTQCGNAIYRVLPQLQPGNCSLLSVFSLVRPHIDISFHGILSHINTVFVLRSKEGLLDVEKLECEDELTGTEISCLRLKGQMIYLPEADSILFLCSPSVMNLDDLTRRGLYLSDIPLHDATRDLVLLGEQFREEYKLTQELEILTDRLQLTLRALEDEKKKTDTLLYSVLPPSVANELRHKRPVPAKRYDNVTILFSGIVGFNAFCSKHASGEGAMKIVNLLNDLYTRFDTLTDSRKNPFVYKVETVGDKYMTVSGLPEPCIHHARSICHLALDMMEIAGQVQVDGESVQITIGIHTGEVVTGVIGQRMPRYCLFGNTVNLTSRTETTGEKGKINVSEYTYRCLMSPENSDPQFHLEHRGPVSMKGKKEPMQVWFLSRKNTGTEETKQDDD
- method: Molecular assay: cGMP formation by heme-free recombinant sGC (CisBio cGMP detection kit)
- Format: biochemical
- test conditions: 300 pM heme-free sGC, 37° C., 60 min, cGMP readout; read-out: EC50 nM, Activity of Compounds in Molecular Assay
metric name: EC50 (nM)

(A) COCCN(C)C(=O)c1ccc(COc2ccc(C)cc2-c2csc(N3CCC(C(=O)O)CC3)n2)c(C#N)c1
(B) Cc1ccc(OCc2ccc(CN(C)CC3CCOCC3)cc2C#N)c(-c2csc(N3CCC(C(=O)O)CC3)n2)c1
**Q:** Select the item whose EC50 value is smaller, choosing between A and B . Use the label to indicate which entry you chose.
**A:** A
(A: 270 nM, B: 400 nM)

(a) Cc1cc(C(=O)N2CCCCC2)ccc1COc1ccc(Cl)cc1-c1csc(N2CCC(C(=O)O)C(C(F)(F)F)C2)n1 (stereo not drawn)
(b) COCCCN(C)C(=O)c1ccc(COc2ccc(C)cc2-c2csc(N3CCC(C(=O)O)CC3)n2)c(C)c1
**Q:** Between these two entries, a and b , state which has the higher EC50. Use the label to indicate which entry you chose.
**A:** a
(a: 380 nM, b: 71 nM)

(I) Cc1cc(CN2CCOCC2)ccc1COc1c(C#N)cccc1-c1csc(N2CCC(C(=O)O)CC2)n1
(II) Cc1cc(C(=O)N2CCCCC2)ccc1COc1ccc(F)cc1-c1csc(N2CCC(C(=O)O)C(C)C2)n1 (stereo not drawn)
(III) Cc1cc(CN2CCS(=O)(=O)CC2)ccc1COc1ccc(C#N)cc1-c1csc(N2CCC(C(=O)O)C(C)C2)n1 (stereo not drawn)
**Q:** Given 3 compounds, produce a descending ranking by EC50. The labels, placed in the requested order, form the answer.
**A:** III, I, II
(III: 2700 nM, I: 280 nM, II: 60 nM)

----------
- method: Assessment of solubility: HT solubility in pION buffer, UV spectrophotometry
- test conditions: pION system solution buffer, pH 4.5, pH 4.5, aqueous buffer, kinetic from dmso stock, Solubility (pH 4.5), pH 4.5 buffer, 16-19 h incubation, 1.0% DMSO
metric name: solubility (µg/mL)

(a) COCCNCc1ccc(COc2ccc(C#N)cc2-c2csc(N3CCC(C(=O)O)CC3)n2)c(C)c1
(b) Cc1ccc(OCc2ccc(CN3CCOCC3)cc2C)c(-c2csc(C3=CCC(C(=O)O)CC3)n2)c1 (stereo not shown)
(c) COCCCN(C)C(=O)c1ccc(COc2ccc(C)cc2-c2csc(N3CCC(C(=O)O)CC3)n2)c(C#N)c1
**Q:** Arrange the items listed above so that solubility rises from first to last. The labels, placed in the requested order, form the answer.
**A:** b, c, a
(b: 14 µg/mL, c: 20 µg/mL, a: 41 µg/mL)

----------
- measurement target: human soluble guanylate cyclase alpha 1 and beta 1 subunits (sGC) stably expressed in Chinese hamster ovary cells (Homo sapiens, UniProt Q02108+Q02153)
- Construct: expressed in transfected cells; host or cells: Chinese hamster ovary cells, stably transfected
- Sequence (Q02108 1-690 partner): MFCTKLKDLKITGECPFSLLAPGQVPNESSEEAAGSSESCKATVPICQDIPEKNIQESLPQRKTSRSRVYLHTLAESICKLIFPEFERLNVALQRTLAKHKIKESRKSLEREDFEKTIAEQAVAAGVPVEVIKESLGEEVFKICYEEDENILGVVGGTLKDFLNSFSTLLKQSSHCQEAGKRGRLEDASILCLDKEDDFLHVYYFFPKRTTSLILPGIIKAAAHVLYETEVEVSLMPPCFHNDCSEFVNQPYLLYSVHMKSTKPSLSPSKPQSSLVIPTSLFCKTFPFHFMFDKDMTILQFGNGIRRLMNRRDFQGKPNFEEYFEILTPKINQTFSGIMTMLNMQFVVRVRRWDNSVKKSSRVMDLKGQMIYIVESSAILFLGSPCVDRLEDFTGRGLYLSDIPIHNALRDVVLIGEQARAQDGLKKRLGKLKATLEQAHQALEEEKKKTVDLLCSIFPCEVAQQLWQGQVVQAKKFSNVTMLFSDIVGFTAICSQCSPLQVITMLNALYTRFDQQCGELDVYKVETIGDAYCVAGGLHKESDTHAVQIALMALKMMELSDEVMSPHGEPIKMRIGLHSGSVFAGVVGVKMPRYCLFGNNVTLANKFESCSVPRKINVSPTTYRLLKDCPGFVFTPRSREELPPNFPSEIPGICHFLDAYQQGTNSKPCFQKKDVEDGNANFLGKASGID
- Sequence (Q02153 1-619): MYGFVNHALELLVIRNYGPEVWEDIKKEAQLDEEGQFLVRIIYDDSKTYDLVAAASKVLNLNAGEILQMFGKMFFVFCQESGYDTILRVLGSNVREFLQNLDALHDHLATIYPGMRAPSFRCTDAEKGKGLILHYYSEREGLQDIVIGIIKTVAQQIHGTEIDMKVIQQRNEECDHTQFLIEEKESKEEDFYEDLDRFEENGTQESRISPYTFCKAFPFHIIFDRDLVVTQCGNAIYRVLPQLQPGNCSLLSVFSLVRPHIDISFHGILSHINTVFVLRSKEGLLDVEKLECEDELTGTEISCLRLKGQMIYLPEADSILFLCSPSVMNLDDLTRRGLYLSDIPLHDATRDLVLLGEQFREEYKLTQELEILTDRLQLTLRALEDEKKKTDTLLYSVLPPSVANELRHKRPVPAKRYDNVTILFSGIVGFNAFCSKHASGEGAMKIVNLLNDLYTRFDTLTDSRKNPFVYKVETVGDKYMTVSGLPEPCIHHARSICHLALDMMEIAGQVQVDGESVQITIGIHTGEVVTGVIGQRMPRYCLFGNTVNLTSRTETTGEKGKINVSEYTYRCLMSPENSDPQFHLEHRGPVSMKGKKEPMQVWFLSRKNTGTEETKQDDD
- method: sGC cellular activator assay: cGMP in CHO cells expressing human sGC, preincubated with ODQ
- Assay type: cell-based
- test conditions: 40 microM ODQ preincubation, 30 min at room temperature, presence or absence of 50% human serum not given, read-out: EC50 nM, Activity of Compounds in Cellular Assay
metric name: EC50 (nM)

Observe how each entry below is paired with its result.
COCCN(C)C(=O)c1ccc(COc2ccc(C)cc2-c2csc(N3C[C@H]4CC[C@@H](C3)[C@H]4C(=O)O)n2)c(C)c1 | 23
Cc1ccc(OCc2ccc(C(=O)N(C)Cc3ncc[nH]3)cc2C)c(-c2csc(N3C[C@H]4CC[C@@H](C3)[C@H]4C(=O)O)n2)c1 | 160
Cc1ccc(OCc2ccc(C(=O)N3CCOCC3)cc2C)c(-c2csc(N3C[C@@H]4[C@H](C3)[C@@H]4C(=O)O)n2)c1 | 720
Cc1ccc(OCc2ccc(CN3C[C@@H]4C[C@H]3CO4)cc2C#N)c(-c2csc(N3C[C@H]4CC[C@@H](C3)[C@H]4C(=O)O)n2)c1 | 44

(a) Cc1ccc(OCc2ccc(C(=O)N3CCC(O)CC3)cc2C)c(-c2csc(N3C[C@H]4CC[C@@H](C3)[C@H]4C(=O)O)n2)c1
(b) Cc1ccc(OCc2ccc(CN3CCN(C)C(=O)C3)cc2C)c(-c2csc(N3CC4CCC(C3)C4C(=O)O)n2)c1 (centres unmarked)
(c) Cc1ccc(OCc2ccc(C(=O)N3CC[C@H](CO)C3)cc2C)c(-c2csc(N3C[C@H]4CC[C@@H](C3)[C@H]4C(=O)O)n2)c1
(d) Cc1ccc(OCc2ccc(CN3CCOC(C#N)C3)cc2C#N)c(-c2csc(N3C[C@H]4CC[C@@H](C3)[C@H]4C(=O)O)n2)c1 (some centres unmarked)
(e) Cc1ccc(OCc2ccc(CN3CCS(=O)(=O)CC3)cc2C)c(-c2csc(N3C[C@@H]4[C@H](C3)[C@@H]4C(=O)O)n2)c1
**Q:** Given 5 compounds, produce a descending ranking by EC50. The labels, placed in the requested order, form the answer.
**A:** e, a, c, d, b
(e: 180 nM, a: 57 nM, c: 29 nM, d: 9.2 nM, b: 3.4 nM)

(P) Cc1ccc(OCc2ccc(CN3CCN(C)C(=O)C3C)cc2C)c(-c2csc(N3CC4CCC(C3)C4C(=O)O)n2)c1 (centres unmarked)
(Q) Cc1ccc(OCc2ccc(C(=O)N(C)CC3CCCO3)cc2C)c(-c2csc(N3C[C@H]4CC[C@@H](C3)[C@H]4C(=O)O)n2)c1 (some centres unmarked)
**Q:** Between these two entries, P and Q , state which has the higher EC50. Use the label to indicate which entry you chose.
**A:** Q

(P) Cc1ccc(OCc2ccc(CN3CCOCC3)cc2C)c(-c2csc(N3CCCC(C)(C(=O)O)CC3)n2)c1 (centres unmarked)
(Q) Cc1ccc(OCc2ccc(CN3CCOCC3)cc2OC(F)(F)F)c(-c2csc(N3C[C@H]4CC[C@@H](C3)[C@H]4C(=O)O)n2)c1
(R) Cc1ccc(OCc2ccc(CN3CCN(C)C(=O)C3)cc2C)c(-c2csc(N3CCC(C(=O)O)CC3)n2)c1
(S) Cc1ccc(OCc2ccc(C(C)N3CCOCC3)cc2C)c(-c2csc(N3CC4CCC(C3)C4C(=O)O)n2)c1 (centres unmarked)
(T) Cc1ccc(OCc2ccc(CN3CCS(=O)(=O)CC3)cc2C)c(-c2csc(N3CC(C4(C(=O)O)CC4)C3)n2)c1
**Q:** Hey, can you sort those compounds up there by EC50, smallest first? The labels, placed in the requested order, form the answer.
**A:** R, Q, S, P, T

(P) Cc1ccc(OCc2ccc(C(=O)N3CCN(C)C(=O)C3)cc2C)c(-c2csc(N3C[C@H]4CC[C@@H](C3)[C@H]4C(=O)O)n2)c1
(Q) CCN1CCN(Cc2ccc(COc3ccc(C)cc3-c3csc(N4CC5CCC(C4)C5C(=O)O)n3)c(C)c2)CC1=O (centres unmarked)
(R) Cc1ccc(OCc2ccc(C(=O)N3CCCCC3)cc2C)c(-c2csc(N3C[C@H]4CC[C@@H](C3)[C@@]4(O)C(=O)O)n2)c1
**Q:** Given 3 compounds, produce a descending ranking by EC50. The labels, placed in the requested order, form the answer.
**A:** R, P, Q
(R: 390 nM, P: 20 nM, Q: 7.6 nM)
